# experimental.system: EGFR (A767_dupASV) expressing Ba/F3 stable cell line (Homo sapiens, UniProt P00533, DUP767-769, cells depend on it)
# Sequence (P00533 with tags, fused parts or gaps DUP767-769): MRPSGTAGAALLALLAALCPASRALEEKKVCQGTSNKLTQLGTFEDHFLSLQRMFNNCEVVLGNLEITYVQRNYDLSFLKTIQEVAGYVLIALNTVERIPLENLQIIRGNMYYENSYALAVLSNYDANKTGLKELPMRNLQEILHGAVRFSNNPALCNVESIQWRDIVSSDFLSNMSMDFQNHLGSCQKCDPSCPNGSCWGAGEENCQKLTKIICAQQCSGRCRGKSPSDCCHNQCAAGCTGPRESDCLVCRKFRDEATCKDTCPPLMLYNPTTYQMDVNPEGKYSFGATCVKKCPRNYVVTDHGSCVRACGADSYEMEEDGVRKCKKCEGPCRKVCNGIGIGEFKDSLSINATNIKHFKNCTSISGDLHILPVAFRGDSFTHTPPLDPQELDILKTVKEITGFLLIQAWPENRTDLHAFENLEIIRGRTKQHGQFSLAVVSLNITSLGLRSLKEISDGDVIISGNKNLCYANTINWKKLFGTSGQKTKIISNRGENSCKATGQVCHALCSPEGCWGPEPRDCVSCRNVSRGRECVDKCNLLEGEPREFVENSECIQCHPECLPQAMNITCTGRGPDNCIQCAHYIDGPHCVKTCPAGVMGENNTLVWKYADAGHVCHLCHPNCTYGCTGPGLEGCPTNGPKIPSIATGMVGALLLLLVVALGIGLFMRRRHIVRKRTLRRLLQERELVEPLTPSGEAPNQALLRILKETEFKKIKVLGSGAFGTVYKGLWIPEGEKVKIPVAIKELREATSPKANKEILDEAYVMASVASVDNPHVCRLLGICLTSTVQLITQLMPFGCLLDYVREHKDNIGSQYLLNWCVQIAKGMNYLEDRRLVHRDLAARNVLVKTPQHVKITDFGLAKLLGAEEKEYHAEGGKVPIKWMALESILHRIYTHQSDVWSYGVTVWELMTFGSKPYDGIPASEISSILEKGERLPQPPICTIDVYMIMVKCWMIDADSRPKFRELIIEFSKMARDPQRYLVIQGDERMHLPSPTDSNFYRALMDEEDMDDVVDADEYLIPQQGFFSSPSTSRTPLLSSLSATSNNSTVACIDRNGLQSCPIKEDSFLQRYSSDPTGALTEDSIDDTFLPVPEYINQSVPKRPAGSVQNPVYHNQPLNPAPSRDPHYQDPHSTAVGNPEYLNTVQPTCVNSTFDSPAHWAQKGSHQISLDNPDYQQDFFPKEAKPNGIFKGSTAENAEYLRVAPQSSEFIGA
# measurement.description: Cellular proliferation (Alamar Blue) assay, EGFR (A767_dupASV) Ba/F3
# Assay type: cell-based
# setup.conditions: 72 hr, read-out: A767 IC50
observation.type: GI50 (nM)

(I) C=CC(=O)Nc1cccc(Nc2nc(Nc3cnn(C)c3)ncc2-c2ccc(OC(F)F)c(F)c2)c1
(II) C=CC(=O)Nc1ccc(F)c(Nc2nc(Nc3cnn(C)c3)ncc2-c2ccc(OC)c(C(F)(F)F)c2)c1
(III) C=CC(=O)Nc1ccc(F)c(Nc2nc(Nc3cnn(CCOC)c3)ncc2-c2ccc(Br)c(F)c2)c1
Order the entries above from lowest to highest GI50. Field: ranking. Enter the labels in the order requested.
I, III, II
(I: 21 nM, III: 43 nM, II: 428 nM)
